Inhibition listing for selected compounds.
Test system: HepG2
PROTOCOL_DETAILS: GSK_TCMDC: Percent inhibition of human HepG2 cell line. Test compounds present at 10uM.
Type: functional
OUTCOME_MEASURE: Inhibition (%)

> print(dat)
                                   compound  quantitative.readout
1  Cc1cccc2nc(-c3ccc(-c4cccc(CNCCN(C)C)c4)cc3)[nH]c12.O=C(O)C(F)(F)F                     6
2  CCOC(=O)C1=C(C)NC(Cn2ccnc2)=C(C(=O)OCC)C1c1ccc(C(C)(C)C)cc1.Cl (stereo not drawn)                     8
3      OCc1ccc2nc3c(cc2c1)-c1cccc2cccc-3c12                    16
4  CC(C)N(Cc1ccccc1)C(=O)CN1C(=O)COc2ccc(S(=O)(=O)N3CCCCCC3)cc21                     0
5  CC(C)(Oc1c(C2CCN(CCCCNC(=O)c3ccc(-c4ccc(C#N)cc4)cc3)CC2)ccc2c1CCCC2)C(N)=O                    34
6  COc1ccc(NS(=O)(=O)c2ccc(C(=O)Nc3ccc(OC(F)(F)F)cc3)cc2)cc1N1CCN(CC2CC2)CC1.O=C(O)C(F)(F)F                    18
7  CCN1CCN(Cc2ccc(NC(=O)c3cc4ccc5cccnc5c4[nH]3)cc2)CC1                     0
8  Cc1cccc2nc(-c3ccc(-c4ccc(CN5CCCC(N)C5)cc4)s3)[nH]c12.O=C(O)C(F)(F)F (stereo not drawn)                    29

###

Test system: HepG2
PROTOCOL_DETAILS: GSK_TCMDC: Percent inhibition of human HepG2 cell line. Test compounds present at 10uM.
Type: functional
One threshold, 20%, splits the recorded Inhibition values: lower ones are Criterion met, equal or higher ones are Criterion not met.

> print(dat)
                                    compound              label
 1  Cc1ccc(C(=O)Nc2ccc(Nc3ccnc4cc(-c5ccncc5)ccc34)cc2O)cc1      Criterion met
 2  Cc1ccccc1C1CCN(C2CCC(NC(=O)/C=C/c3cc(F)ccc3F)CC2)CC1 (stereo not given)  Criterion not met
 3  COc1ccc2ccccc2c1CCCCN1CCN(CC(c2ccc(F)cc2)N2CCC(N3CCCC3)CC2)CC1.O=C(O)C(F)(F)F (stereo not given)  Criterion not met
 4  Fc1cccc(Nc2nc(NCc3ccc4ccsc4c3)nc(Nc3cccc(F)c3)n2)c1      Criterion met
 5  CC(C)(C)c1ccc(NC(=O)c2ccc(CN3CCCN(Cc4cccc(C#N)c4)CC3)cc2)cc1.O=C(O)C(F)(F)F  Criterion not met
 6   O=C(CC(=O)C(F)(F)F)c1ccccc1[N+](=O)[O-]  Criterion not met
 7  COc1ccccc1CC1CCCN(C2CCC(NC(=O)c3cc4ccccc4[nH]3)CC2)C1 (stereo not given)  Criterion not met
 8  CN1CCCC1CCNc1ncc2c(-c3ccc(NC(=O)Nc4cc(C(F)(F)F)ccc4F)c(F)c3)nn(C)c2n1.O=C(O)C(F)(F)F (stereo not given)  Criterion not met
 9                   C=CCNC(=O)CCCNC(=N)N.Cl      Criterion met
10    Cc1noc(-c2cccs2)c1C(=O)NCCc1cccc(Cl)c1      Criterion met
